- protocol.description: Human liver microsome stability assay
- Assay type: in vitro ADME
- particulars: both sexes, human, microsomes, pH 7.4
Category | rule: reported half-life at 0.5 μM within range, see LOW: < 30 min; MID: ≥ 30 min and < 80 min; HIGH: ≥ 80 min

Use these answered entries as a reference point.
In [3]: df
Out[3]:
                                   compound  group
0  CCS(=O)(=O)c1ccc(N2CCN(C)CC2)c(-c2cn(C)c(=O)c3[nH]ccc23)c1 [Example 331]   HIGH
1  CCS(=O)(=O)c1ccc(OCC2CC2)c(-c2cn(C)c(=O)c3[nH]ncc23)c1 [Example 323]   HIGH
2  Cn1cc(-c2cc(S(C)(=O)=O)ccc2OCC2CCOC2)c2cc[nH]c2c1=O (centres unmarked) [Example 217]    MID
3  CCS(=O)(=O)Cc1ccc(Oc2ccc(F)cc2F)c(-c2cn(C)c(=O)c3[nH]ccc23)c1 [Example 297]   HIGH
4  Cn1cc(-c2cc(S(=O)(=O)C(F)(F)F)ccc2NCC2CC2)c2cc[nH]c2c1=O [Example 244]    MID

Q: Hello team, could you let me know which band the following compound falls into: Cn1cc(-c2cc(S(C)(=O)=O)ccc2Oc2ccc(Cl)c(F)c2)c2cc[nH]c2c1=O [Example 189]
Result: MID

Q: Hello team, could you let me know which band the following compound falls into: CCS(=O)(=O)c1ccc(NC2CC2)c(-c2cn(C)c(=O)c3[nH]ccc23)c1 [Example 267]
Result: HIGH

Q: Hello team, could you let me know which band the following compound falls into: CN(C)c1ccc(NC(=O)c2ccc(Oc3ccc(F)cc3F)c(-c3cn(C)c(=O)c4[nH]ccc34)c2)cc1 [Example 120]
Result: LOW

Q: Hello team, could you let me know which band the following compound falls into: Cn1cc(-c2cc(S(C)(=O)=O)ccc2OCC2(F)COC2)c2cc[nH]c2c1=O [Example 206]
Result: HIGH

Q: Hello team, could you let me know which band the following compound falls into: Cn1cc(-c2cc(S(N)(=O)=O)cnc2NCC2CC2)c2cc[nH]c2c1=O [Example 209]
Result: HIGH

Q: Hello team, could you let me know which band the following compound falls into: Cn1cc(-c2cc(CS(=O)(=O)c3ccccc3)ccc2Oc2ccc(F)cc2F)c2cc[nH]c2c1=O [Example 306]
Result: LOW

Q: Hello team, could you let me know which band the following compound falls into: CNS(=O)(=O)c1cnc(NCC2CC2)c(-c2cn(C)c(=O)c3[nH]ccc23)c1 [Example 210]
Result: HIGH

Q: Hello team, could you let me know which band the following compound falls into: CCS(=O)(=O)c1ccc(OCC2CC2(F)F)c(-c2cn(C)c(=O)c3[nH]ccc23)c1 (centres unmarked) [Example 240]
Result: HIGH
